system: Staphylococcus aureus; assay: Antibacterial activity against Staphylococcus aureus MRSA ATCC 43300 (CO-ADD:GP_020); MIC in CAMBH media using NBS plates, by Resazurin F(560/590); assay type: functional; settings: Concentration 20 uM, ASSAY_TEST Inhibition of Bacterial Growth, detection method Resazurin, Fluorescence (ex560/em590), MEDIA CAMHB, plate type 384well, CORNING #3640, time 18 hr
Classification field: enter true (1) for Inhibition values not below 10%, false (0) for values below it.

compound	target-or-system	assigned-label
CC[C@](C)(O)C(=O)O[C@H]1C(=O)O[C@@H]2C[C@H]3C(C)=C[C@H](O)[C@@H](O)[C@]3(C)[C@H]3[C@@]4(O)OC[C@]32[C@@H]1[C@@H](C)[C@H]4O	Staphylococcus aureus	true (1)
COc1ccc2c(c1OC)CN1CCc3cc4c(cc3C1C2)OCO4 (configuration not stated) [TETRAHYDROBERBERINE]	Staphylococcus aureus	true (1)
O=P1(N(CCCl)CCCl)NCCCO1 (configuration not stated) [CYCLOPHOSPHAMIDE ANHYDROUS]	Staphylococcus aureus	true (1)
COc1cccc2c1cc([N+](=O)[O-])c1c(C(=O)O)cc3c(c12)OCO3 [ARISTOLOCHIC ACID]	Staphylococcus aureus	false (0)
COc1ccc2c3c([nH]c2c1)[C@H](C=C(C)C)N1C(=O)[C@@H]2CCCN2C(=O)[C@@H]1C3 [FUMITREMORGIN]	Staphylococcus aureus	false (0)
COc1c2c(c(CC=C(C)C)c3oc(=O)c(-c4ccc(O)cc4)c(O)c13)OC(C)(C)C=C2 [LONCHOCARPIC ACID]	Staphylococcus aureus	true (1)
CCN1C[C@]2(COC)[C@H](O)C[C@H](OC)[C@]34C1[C@H]([C@H](OC)[C@H]23)[C@]1(OC(C)=O)[C@H]2[C@@H](OC(=O)c3ccccc3)[C@](O)(C[C@H]24)[C@@H](OC)[C@@H]1O	Staphylococcus aureus	true (1)
CC(=O)O[C@@H]1[C@@H](O)C2=C3[C@]4(C)[C@@H]1C(C)(C)C(=O)C[C@@H]4[C@]3(O)[C@H](OC(C)=O)[C@@]1(C[C@@H]1C)C2=O	Staphylococcus aureus	true (1)
COc1ccc2c(c1O)-c1c(OC)c(OC)cc3c1C(C2)N(C)CC3 (configuration not stated)	Staphylococcus aureus	true (1)
CC[C@@]1(O)C(=O)OCc2c1cc1n(c2=O)Cc2cc3ccccc3nc2-1 [CAMPTOTHECIN]	Staphylococcus aureus	false (0)

q: Exam item: decide whether the reported Inhibition for CCCCCC(O)C1C(=O)OC(C)C(O)/C=C/C=C/C=C/C=C/C=C(\C)C(O)C(O)C(O)CC(O)CC(O)CC(O)CC(O)CC1O (configuration not stated) is at least 10%.
a: false (0)

q: Exam item: decide whether the reported Inhibition for CC12C(=O)C=CCC1=CCC1C2CCC2(O)C(=O)OC3(C)C4CC5(C)C(COC16OC23C5C6=O)C(=O)O4 (configuration not stated) is at least 10%.
a: true (1)

----------
Catalogue of Inhibition values
system: Candida albicans; conditions: 20 µM
Description: Antifungal activity against Candida albicans ATCC 90028 (CO-ADD:FG_001); MIC in YNB media using NBS plates, by OD630
Results with a measured potency or affinity are listed apart.

compound	Inhibition
CC12C(=O)C=CCC1=CCC1C2CCC2(O)C(=O)OC3(C)C4CC5(C)C(COC16OC23C5C6=O)C(=O)O4 (stereo not drawn)	-2.84%
CC[C@H]1CN2CCc3cc(OC)c(OC)cc3[C@@H]2C[C@@H]1C[C@H]1NCCc2c1[nH]c1ccc(O)cc21 [TUBULOSINE]	2.67%
CC1CCC2C(C)C(=O)OC3OC4(C)CCC1C32OO4 (stereo not drawn)	23.7%
OC1CN2CC[C@H](O)[C@@H]2C(O)[C@@H]1O (stereo partly drawn)	2.3%
C1CCC(NC2CCCCC2)CC1.COC1C(OC(=O)/C=C/C=C/C=C/C=C/C(=O)O)CCC2(CO2)C1C1(C)OC1CC=C(C)C (stereo not drawn)	9.6%
O=P1(N(CCCl)CCCl)NCCCO1 (stereo not drawn) [CYCLOPHOSPHAMIDE ANHYDROUS]	-2.64%
COc1c2c(c(CC=C(C)C)c3oc(=O)c(-c4ccc(O)cc4)c(O)c13)OC(C)(C)C=C2 [LONCHOCARPIC ACID]	-1.79%

Turning to the following compound.
q: // Inhibition lookup, key: `CO[C@@H]1[C@H](O)CC[C@]2(CO2)[C@H]1[C@@]1(C)O[C@@H]1CC=C(C)C`
a: 4.27%
